Assay: aqueous solubility of CV-8972
Type: physicochemical
Details: aqueous solution, aqueous buffer, free base, read-out: saturated base solubility / minimal solubility as the free base
quantity_measured: solubility

Give recorded solubility. COc1ccc(CN2CCN(CCOC(=O)c3cccnc3)CC2)c(OC)c1OC
5000 to 10000 µg/mL

====

Assay: 28-day dog study (nonclinical toxicology, NOAEL)
Assay type: in vivo
Conditions: female, dog, in vivo, po, 200 mg/kg/day
quantity_measured: AUC(0-t) (µg·h/mL)
Answers are plain numbers, in µg·h/mL.

Hi team, please reply with AUC(0-t) for each item in this list.
1. COc1ccc(CN2CCNCC2)c(OC)c1OC [trimetazidine, reference compound]
2. COc1ccc(CN2CCN(CCO)CC2)c(OC)c1OC [CV-8814]

1: 13.8; 2: 653

// data source = patent US20210401833A1
